Source listed as ChEMBL document CHEMBL5380836.

molecular target: UniProtKB P33261
Sequence (P33261 whole entry): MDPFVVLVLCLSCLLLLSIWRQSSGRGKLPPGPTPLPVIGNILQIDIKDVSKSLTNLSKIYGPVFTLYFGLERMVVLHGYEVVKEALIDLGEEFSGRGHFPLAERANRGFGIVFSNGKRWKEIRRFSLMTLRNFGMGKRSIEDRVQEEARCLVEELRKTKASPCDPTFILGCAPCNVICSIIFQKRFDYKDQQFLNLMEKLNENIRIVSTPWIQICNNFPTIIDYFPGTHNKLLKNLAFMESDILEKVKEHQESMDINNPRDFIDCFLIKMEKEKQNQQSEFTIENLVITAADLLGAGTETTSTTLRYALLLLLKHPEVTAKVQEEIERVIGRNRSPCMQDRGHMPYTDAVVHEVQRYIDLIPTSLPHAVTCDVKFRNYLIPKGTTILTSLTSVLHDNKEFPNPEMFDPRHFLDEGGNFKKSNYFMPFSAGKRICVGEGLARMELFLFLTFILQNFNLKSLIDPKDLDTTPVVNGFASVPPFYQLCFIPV
Value Type: IC50

INSERT INTO assay_data (smiles_notation, assayed_system, value_type, reported_value) VALUES
  ('CCOc1ccc2c(=O)n(-c3ccc4nc5n(c4c3)CCN(C)C5)c(=O)n(-c3ccc(OC(F)F)cc3)c2n1', 'UniProtKB P33261', 'IC50', '29 µM');

* * *

assay: Oral bioavailability in ICR mouse at 10 mg/kg administered via gavage measured for 0.083 to 24 hrs by LC-MS analysis; type: ADME, organism-based; conditions: in vivo, time 0.083-24 hrs
Value Type: bioavailability (%)

INSERT INTO measurements (smiles_notation, value_type, unit_spec, reported_value) VALUES
  ('CCOc1ncc2cc(-c3ccc4nc5n(c4c3)CCN(C)C5)c(=O)n(-c3ccc(OC(F)F)cc3)c2n1', 'bioavailability', '%', 116);
